test system: human SMAD7 mRNA; test: Dose-dependent inhibition of human SMAD7 mRNA expression in Hep3B cells (Example 3, Study 1 and 2); format: cell-based; conditions: 312.5 nM, electroporation, approximately 16 hours, Study 1, relative to untreated control cells
Strand notation (5' to 3'): a small letter for the sugar, then the base; units joined by * are phosphorothioate-linked, units joined directly phosphodiester-linked; [ ] holds rarer units or linkages, { } end groups; capitals alone tell only the bases. e = 2'-O-(2-methoxyethyl) (MOE); [5mC] = 5-methylcytosine; d = 2'-deoxy (DNA)
Consider the following substances; for each one, report its % inhibition of SMAD7 mRNA expression.
Just the number please, in %, no unit attached.

GET /value?item= 771632 (antisense eA*eA*eT*e[5mC]*e[5mC]*dT*dT*d[5mC]*dT*dT*dG*dG*dA*dG*dG*eG*eA*eA*eG*eG) [compound 771632] &field=% inhibition of SMAD7 mRNA expression returns 6

GET /value?item= 771387 (antisense eA*eG*e[5mC]*eA*eT*d[5mC]*dT*dG*dG*dA*d[5mC]*dA*dG*dT*d[5mC]*eT*eG*e[5mC]*eT*eG) [compound 771387] &field=% inhibition of SMAD7 mRNA expression returns 8

GET /value?item= 771838 (antisense eG*eA*eA*e[5mC]*eT*d[5mC]*d[5mC]*dT*dG*d[5mC]*dA*dG*dG*dA*dT*eG*eA*eG*eG*eG) [compound 771838] &field=% inhibition of SMAD7 mRNA expression returns 0

GET /value?item= 771390 (antisense e[5mC]*eG*eG*e[5mC]*eT*dG*d[5mC]*d[5mC]*d[5mC]*d[5mC]*dA*d[5mC]*d[5mC]*d[5mC]*d[5mC]*eG*e[5mC]*eG*e[5mC]*eG) [compound 771390] &field=% inhibition of SMAD7 mRNA expression returns 0

GET /value?item= 771407 (antisense eA*eG*eG*eA*eG*d[5mC]*dG*dA*dA*d[5mC]*dA*dT*dG*dA*d[5mC]*e[5mC]*eT*e[5mC]*e[5mC]*eG) [compound 771407] &field=% inhibition of SMAD7 mRNA expression returns 17

GET /value?item= 771769 (antisense eG*eG*e[5mC]*eT*eG*dG*dG*dA*dA*dT*d[5mC]*dA*dG*dA*dA*e[5mC]*eT*eT*eG*eG) [compound 771769] &field=% inhibition of SMAD7 mRNA expression returns 10

GET /value?item= 771891 (antisense e[5mC]*eT*e[5mC]*e[5mC]*e[5mC]*dA*dA*dG*d[5mC]*d[5mC]*dT*dA*d[5mC]*dA*dT*eA*eT*eT*eT*e[5mC]) [compound 771891] &field=% inhibition of SMAD7 mRNA expression returns 0

GET /value?item= 771831 (antisense e[5mC]*eG*eA*eT*e[5mC]*dA*dT*dT*dT*dT*d[5mC]*dT*dA*d[5mC]*dA*e[5mC]*e[5mC]*eT*eT*eT) [compound 771831] &field=% inhibition of SMAD7 mRNA expression returns 0

GET /value?item= 771704 (antisense e[5mC]*eA*eG*eG*eA*dG*dG*dG*dT*dA*dT*dG*d[5mC]*dA*d[5mC]*eA*e[5mC]*eT*e[5mC]*eT) [compound 771704] &field=% inhibition of SMAD7 mRNA expression returns 14

GET /value?item= 771808 (antisense e[5mC]*e[5mC]*e[5mC]*e[5mC]*eA*dA*dA*dG*dT*d[5mC]*d[5mC]*dA*d[5mC]*dG*d[5mC]*eT*e[5mC]*eA*eT*eG) [compound 771808] &field=% inhibition of SMAD7 mRNA expression returns 10

GET /value?item= 771506 (antisense eG*e[5mC]*eT*e[5mC]*eA*dG*d[5mC]*dT*d[5mC]*dA*d[5mC]*dG*d[5mC]*dT*d[5mC]*eT*eG*eT*e[5mC]*e[5mC]) [compound 771506] &field=% inhibition of SMAD7 mRNA expression returns 54

GET /value?item= 771794 (antisense eG*eA*eA*eG*e[5mC]*dA*dA*dG*dT*d[5mC]*dA*d[5mC]*dT*dG*d[5mC]*e[5mC]*eT*eT*e[5mC]*eT) [compound 771794] &field=% inhibition of SMAD7 mRNA expression returns 0

GET /value?item= 771732 (antisense eG*eT*e[5mC]*eA*eT*dG*dT*dG*dA*dA*d[5mC]*dA*d[5mC]*dT*d[5mC]*eT*eT*eT*e[5mC]*eA) [compound 771732] &field=% inhibition of SMAD7 mRNA expression returns 35

GET /value?item= 771777 (antisense e[5mC]*e[5mC]*e[5mC]*eT*e[5mC]*dA*dG*dT*d[5mC]*dT*d[5mC]*dA*dG*dA*dT*eA*eA*e[5mC]*eA*eG) [compound 771777] &field=% inhibition of SMAD7 mRNA expression returns 0

GET /value?item= 771795 (antisense e[5mC]*eG*eT*e[5mC]*eT*dG*d[5mC]*dG*dG*d[5mC]*dA*dA*dA*dA*d[5mC]*e[5mC]*e[5mC]*eA*e[5mC]*e[5mC]) [compound 771795] &field=% inhibition of SMAD7 mRNA expression returns 9

GET /value?item= 771733 (antisense eT*eG*eA*e[5mC]*eA*dG*d[5mC]*d[5mC]*dA*d[5mC]*dA*dA*dG*dT*d[5mC]*eA*e[5mC]*eA*eA*e[5mC]) [compound 771733] &field=% inhibition of SMAD7 mRNA expression returns 0

GET /value?item= 771397 (antisense eG*eA*eG*e[5mC]*eG*dG*d[5mC]*dG*dG*d[5mC]*dG*dG*d[5mC]*d[5mC]*d[5mC]*eG*eA*eG*eG*eG) [compound 771397] &field=% inhibition of SMAD7 mRNA expression returns 0
